system: Hepatocyte growth factor/scatter factor (HGF) (UniProt P14210+P14210)
Sequence (P14210 32-494, chain 1 of 2): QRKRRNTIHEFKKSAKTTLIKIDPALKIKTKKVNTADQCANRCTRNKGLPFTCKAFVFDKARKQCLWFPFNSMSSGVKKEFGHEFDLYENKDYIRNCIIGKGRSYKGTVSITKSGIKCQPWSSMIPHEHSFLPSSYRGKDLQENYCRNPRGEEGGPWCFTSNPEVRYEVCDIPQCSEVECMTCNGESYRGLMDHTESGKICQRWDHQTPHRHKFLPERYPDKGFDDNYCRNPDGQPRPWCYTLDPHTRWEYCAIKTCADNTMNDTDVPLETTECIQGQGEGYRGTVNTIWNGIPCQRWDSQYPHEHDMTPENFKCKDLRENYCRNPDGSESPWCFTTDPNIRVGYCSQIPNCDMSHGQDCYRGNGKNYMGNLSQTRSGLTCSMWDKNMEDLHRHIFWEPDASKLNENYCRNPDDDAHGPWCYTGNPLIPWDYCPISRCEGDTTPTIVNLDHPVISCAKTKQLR
Sequence (P14210 495-728, chain 2 of 2): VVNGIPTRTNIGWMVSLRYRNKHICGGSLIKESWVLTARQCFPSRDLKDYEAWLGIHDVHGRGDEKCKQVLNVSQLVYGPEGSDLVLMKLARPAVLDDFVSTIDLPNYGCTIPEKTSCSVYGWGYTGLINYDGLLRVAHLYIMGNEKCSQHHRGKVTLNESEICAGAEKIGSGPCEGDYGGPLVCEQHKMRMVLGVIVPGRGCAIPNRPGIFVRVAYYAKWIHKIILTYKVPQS
assayComment: FP
conditionSummary: 2'-F pyrimidines
measure: Kd (nM)
Write the answer as a number in nM, unit excluded.

Input line: Write down Kd measured for item GAGAGNUCCUAUUUAUGACAUCCCAUGCCCCCA [Tr65]
Output line: 1.4
